read-out: Monocyte Chemoattractant Protein-1 (MCP1), CCL2 (gene 6347); assay: BSK_4H_MCP1: BioMAP Diversity Plus: 4H Assay for Monocyte Chemoattractant Protein-1 (MCP1) Biomarker Activity (AID 2283018); settings: primary human endothelial cells (HUVEC); actives raise or lower the signal
Active and inactive are the calls of the source. How the source made its calls: active means hit-call score of the fitted dose curve at least 0.9, where 1 is the maximum; inactive means score below 0.9.
Bench note: report the call from Yes (active), No (inactive)

Reference set (10 entries):
| Compound | Group |
| --- | --- |
| O=C(O)Cc1cc(I)c(Oc2ccc(O)c(I)c2)c(I)c1 | No |
| O=c1ccc2ccccc2o1 | No |
| Cc1oc2c(NC(=O)c3c(Cl)cccc3Cl)cccc2c1C(C)(C)O | No |
| CC(C)(C)c1cc(/C=C2\SC(N)=NC2=O)cc(C(C)(C)C)c1O | Yes |
| Oc1ccc2ccccc2c1 | No |
| CCN(Cc1cccc(S(=O)(=O)O)c1)c1ccc(C(=C2C=CC(=[N+](CC)Cc3cccc(S(=O)(=O)O)c3)C=C2)c2ccccc2S(=O)(=O)[O-])cc1 | No |
| NCc1cccc(C2CCN(C(=O)c3ccc(C#Cc4ccccc4F)o3)CC2)c1 | Yes |
| O=C(Nc1ccc(Cl)cc1)Nc1ccc(Cl)c(Cl)c1 | Yes |
| CCCCCCCCOC(=O)c1cc(O)c(O)c(O)c1 | Yes |
| OCCO | No |

**Query** Look up the recorded call for CCCCCCCCOc1ccc(C(=O)c2ccccc2)c(O)c1 in this test.
**Result** No

**Query** Tell me the assay call for Cc1c2ccccc2c(C)c2c1ccc1ccccc12 please.
**Result** Yes

**Query** What call does the record list for Cc1cc2c(cc1C(F)(F)F)N(C(=O)Nc1ccc(Oc3cccnc3C)nc1)CC2 ?
**Result** No

====

read-out: TIMP1, TIMP1 (gene 7076); experiment: LTEA_HepaRG_TIMP1: Life Technologies and Expression Analysis (LTEA) Assay for TIMP1 using HepaRG (AID 2283534); conditions: mRNA level, 48 h; actives raise or lower the signal
The source made the active and inactive calls. The calls were made as follows: active = hit-call score of the fitted dose curve at least 0.9, where 1 is the maximum; inactive = score below 0.9.
Permitted responses: active, inactive

Please review the entries below; each comes with its answer.
| Compound | Group |
| --- | --- |
| CC[C@H](NC(=O)c1cc(F)ccc1NS(=O)(=O)c1cccc2cccnc12)c1ccccc1 | inactive |
| O=C(O)Cc1cc(I)c(Oc2ccc(O)c(I)c2)c(I)c1 | inactive |
| COc1cc(C(=O)NC2CCN(C)CC2)ccc1Nc1ncc2c(n1)N(C1CCCC1)CC(F)(F)C(=O)N2C | active |
| CC1(C)NC(=O)N(c2ccc([N+](=O)[O-])c(C(F)(F)F)c2)C1=O | inactive |
| COc1ccc2cc(S(=O)(=O)N[C@H](CC(=O)N[C@H](Cc3ccc(CN4[C@H](C)CCC[C@@H]4C)cc3)C(=O)N(C)C(C)C)c3ccc4c(c3)OCO4)ccc2c1 | active |
| CN(C)c1ccc(C(=C2C=CC(=[N+](C)C)C=C2)c2ccc(N(C)C)cc2)cc1 | active |
| CCO[Si](CCCNC(N)=O)(OCC)OCC | inactive |
| CCN(Cc1cccnc1)C(=O)c1cccc(Cl)c1[C@]1(C)C(=O)N(Cc2ccc(OC)cc2OC)c2ccc(Cl)cc21 | inactive |

**Query** Dear colleague, could you share the recorded outcome for CC(=O)N1CCN(c2ccc(OC[C@H]3CO[C@](Cn4ccnc4)(c4ccc(Cl)cc4Cl)O3)cc2)CC1 when you have a moment?
**Result** active

====

target: rat Serotonin, 5-Hydroxytryptamine Receptor (5HT), Non-Selective Binding, Htr1a (gene 24473); experiment: NVS_GPCR_r5HT_NonSelective: NovaScreen (NVS) G Protein-Coupled Receptor Assay for rat Serotonin, 5-Hydroxytryptamine Receptor (5HT), Non-Selective Binding (AID 2283295)
Results filed as inconclusive are left out. The source made the active and inactive calls. The calls were made as follows: active = hit-call score of the fitted dose curve at least 0.9, where 1 is the maximum; inconclusive = response in the unintended direction; inactive = score below 0.9.
Choose one outcome from this list and give only that: label 1 for active, label 0 for inactive

Solved entries (count: 4):
| Compound | Group |
| --- | --- |
| CCN(CC)C(=O)c1cc(S(=O)(=O)Cc2ccccc2)c(N2CCC(c3ccccc3)CC2)cc1N(CC)CCN(C)C | label 1 |
| NCc1cccc(C2CCN(C(=O)c3ccc(C#Cc4ccccc4F)o3)CC2)c1 | label 1 |
| COc1ccc2cc(S(=O)(=O)N[C@H](CC(=O)N[C@H](Cc3ccc(CN4[C@H](C)CCC[C@@H]4C)cc3)C(=O)N(C)C(C)C)c3ccc4c(c3)OCO4)ccc2c1 | label 0 |
| CCOC(=O)O[C@H](C)OC(=O)c1ccc2c(c1)cc(C(=O)NC1CCN(C(C)C)CC1)n2Cc1cc(-c2ccc(Cl)s2)on1 | label 1 |

**Query** Short answer needed: outcome of this test for O=C1c2ccccc2C(=O)N1CCc1noc(-c2ccc(CN3CCCCCC3)s2)n1 ?
**Result** label 0

**Query** Please indicate how the test categorized CCN(Cc1cccnc1)C(=O)c1cccc(Cl)c1[C@]1(C)C(=O)N(Cc2ccc(OC)cc2OC)c2ccc(Cl)cc21 .
**Result** label 1

====

read-out: Urokinase-type plasminogen activator receptor (uPAR), PLAUR (gene 5329); assay: BSK_BE3C_uPAR: BioMAP Diversity Plus: BE3C Assay for Urokinase-type plasminogen activator receptor (uPAR) Biomarker Activity (AID 2283039); conditions: primary human bronchial epithelial cells; actives raise or lower the signal
The source made the active and inactive calls. The calls were made as follows: active = hit-call score of the fitted dose curve at least 0.9, where 1 is the maximum; inactive = score below 0.9.
Metric: AC50

Before answering, review these 5 worked examples.
| Compound | AC50 |
| --- | --- |
| O=C(OCCCCCCOC(=O)c1ccccc1)c1ccccc1 | inactive |
| Cc1c2ccccc2c(C)c2c1ccc1ccccc12 | inactive |
| CCCCCCCCCC(=O)O | inactive |
| Clc1ccccc1C(c1ccccc1)(c1ccccc1)n1ccnc1 | 9.68 µM (active) |
| Clc1cc(Cl)c2c(c1)N=C1CCCCCN1C2 | inactive |

Return reported AC50 values for all items listed beneath this line.
1. Cc1ccc(C(C)C)cc1
2. CCOC(=O)O[C@H](C)OC(=O)c1ccc2c(c1)cc(C(=O)NC1CCN(C(C)C)CC1)n2Cc1cc(-c2ccc(Cl)s2)on1
3. CCCCCCCC[Si](OCC)(OCC)OCC
4. c1ccc2n[nH]nc2c1

**Result**
["inactive", "9.89 µM (active)", "inactive", "inactive"]

====

test: APR_HepG2_MitoMembPot_24hr: Apredica 24-hour HepG2 Assay for Mitochondrial Membrane Potential (AID 2282911); settings: imaging, actives raise or lower the signal
Active and inactive are the calls of the source. The calls were made as follows: active = hit-call score of the fitted dose curve at least 0.9, where 1 is the maximum; inactive = score below 0.9.
Please answer using one outcome listed in True for active, False for inactive

For orientation, consider the following solved cases.
| Molecule | Group |
| --- | --- |
| CC[C@H](NC(=O)c1cc(F)ccc1NS(=O)(=O)c1cccc2cccnc12)c1ccccc1 | True |
| CN1C(=O)CC[C@H]1c1cccnc1 | False |
| CCCCCCCCOC(=O)c1cc(O)c(O)c(O)c1 | True |
| COc1ccc2cc(S(=O)(=O)N[C@H](CC(=O)N[C@H](Cc3ccc(CN4[C@H](C)CCC[C@@H]4C)cc3)C(=O)N(C)C(C)C)c3ccc4c(c3)OCO4)ccc2c1 | False |

**Query** Look up the recorded call for CN(C)c1ccc(C(=C2C=CC(=[N+](C)C)C=C2)c2ccc(N(C)C)cc2)cc1 in this test.
**Result** True

**Query** So what was the verdict on Clc1cc(Cl)c2c(c1)N=C1CCCCCN1C2 in this test?
**Result** True

**Query** Test call, this molecule: O=c1c(-c2ccc(O)cc2)coc2cc(O)cc(O)c12
**Result** True

**Query** Can you look up the reported call for O=C(O)Cn1c(=O)n(Cc2ccc(Br)cc2F)c(=O)c2ccc(Cl)cc21 for me?
**Result** False

**Query** Could you please tell me the result logged for CCCOC(=O)c1cc(O)c(O)c(O)c1 in this assay?
**Result** False

**Query** Field: outcome | Entry: Clc1ccccc1C(c1ccccc1)(c1ccccc1)n1ccnc1
**Result** False

**Query** What call does the record list for CCCCCCCC[Si](OCC)(OCC)OCC ?
**Result** True

**Query** Assay result, entry OC12N=C(c3ccccc3)SC1Cc1cc(Cl)ccc12 (configuration not stated) — outcome?
**Result** False

====

read-out: Intercellular Adhesion Molecule 1 (ICAM1), ICAM1 (gene 3383); test: LTEA_HepaRG_ICAM1: Life Technologies and Expression Analysis (LTEA) Assay for Intercellular Adhesion Molecule 1 (ICAM1) using HepaRG (AID 2283507); conditions: mRNA level, 48 h; actives raise or lower the signal
Calls of active or inactive are those of the source. The calls were made as follows: active = hit-call score of the fitted dose curve at least 0.9, where 1 is the maximum; inactive = score below 0.9.
API: response.call in active, inactive

Observe how each entry below is paired with its result.
| Compound | Group |
| --- | --- |
| CCCC(=O)OCCC(C)C | inactive |
| CC[C@@H]1C[C@H](N(Cc2cc(C(F)(F)F)cc(C(F)(F)F)c2)C(C)=O)c2cc(C(F)(F)F)ccc2N1C(=O)OC(C)C | inactive |
| Cc1cccc2ccccc12 | inactive |
| CCN(Cc1cccnc1)C(=O)c1cccc(Cl)c1[C@]1(C)C(=O)N(Cc2ccc(OC)cc2OC)c2ccc(Cl)cc21 | active |
| Oc1ccccc1 | inactive |
| CC1=CC(=O)/C(=C(/C)O)C(=O)O1 | inactive |
| CCCCCc1ccc(N)cc1 | inactive |
| OCCO | inactive |

**Query** Per the records of this test, what outcome belongs to Cc1cc(F)ccc1-c1cc(N2CC[C@@H](O)[C@H]2CO)ncc1N(C)C(=O)C(C)(C)c1cc(C(F)(F)F)cc(C(F)(F)F)c1 ?
**Result** active

**Query** Hey, what did the test say about CC(C)(C)c1csc(-c2cc3cc(OCc4ccccc4CC(=O)O)ccc3o2)n1 ?
**Result** inactive

**Query** What is the recorded call for this compound in the test? O=C=NCCCCCCN=C=O
**Result** inactive

**Query** Each compound tested received a call. Report the one for c1ccc2ccccc2c1 .
**Result** inactive
